Biological target: T1, human CACNG1 nanodisc (Homo sapiens, UniProt Q06432)
T1 construct: made in house
T1 sequence (Q06432 whole entry): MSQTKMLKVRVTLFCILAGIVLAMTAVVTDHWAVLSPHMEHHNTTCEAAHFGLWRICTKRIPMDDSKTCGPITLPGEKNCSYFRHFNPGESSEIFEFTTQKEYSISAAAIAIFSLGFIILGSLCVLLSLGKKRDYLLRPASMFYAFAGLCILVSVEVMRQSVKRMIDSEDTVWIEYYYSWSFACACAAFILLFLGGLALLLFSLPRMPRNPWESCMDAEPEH
Experiment: Biacore binding kinetics of anti-CACNG1 monoclonal antibodies to human CACNG1 nanodisc, antigen capture format
Conditions: 25° C., 1:1 binding model
Experimental: Equilibrium dissociation constants (KD values) for nanodisc embedded human CACNG1 expressed with a C-terminal PADRE-Flag-His tag (human CACNG1 nanodisc) binding to purified anti-hCACNG1 antibodies were determined using a real-time surface plasmon resonance biosensor technology with a Biacore T200 instrument. […] Antibody association was monitored for 2 minutes while dissociation was monitored in HBS-N++ running buffer for 5 minutes. […]

[
  {
    "molecule": "H2aM31944N: anti-hCACNG1 antibody, HCVR/LCVR SEQ ID NOs: 82/90 (antibody, V domains shown) VH: QVQLVESGGGVVQPGRSLRLSCEASGITFRNYGMHWVRQAPGKGLEWVAVMWYDGSNKYYADSVKGRFTISRDNSKNTVYLQMNSLRAEDTAVYYCARRGHIATAAPFDYWGQGTLVTVSS VL: DIQMTQSPSSLSASVGDRVTISCRASQSISSYLNWYQQKPGKAPKVLMYAASSLQSGVPSRFSGSGSGTDFTLTISSLQPEDFATYYCQQSYSTPPITFGQGTRLEIK",
    "kd": "0.00395 s⁻¹"
  }
]
